Recorded values, source patent US20210246115A1.

// reported MIC for each item listed
Tested on: E. faecium ATCC 700221
Assay: MIC, E. faecium ATCC 700221
Assay type: cell-based
Conditions: Enterococcus faecium, ATCC700221; Table XIV A. Gram-positive bacteria; read-out: E. faecium ATCC 700221 MIC
Where a name gives a salt, the structure may show the parent alone.
assay-metric: MIC (µg/mL)

>>> measurement("N[C@H]1CC[C@H](NCCc2cn(CC3CCCCC3)c3ccc(-c4cccc(OC(F)(F)F)c4)cc23)CC1 [Compound 274, hydrochloride salt]")
2
>>> measurement("Cc1cccc(-c2ccc3c(c2)c(CCN[C@H]2CC[C@H](N)CC2)cn3CC2CCCCC2)c1 [Compound 225, hydrochloride salt]")
1
>>> measurement("COc1ccccc1-c1ccc2c(c1)c(CCCN[C@H]1CC[C@H](N)CC1)cn2CC1CCCCC1 [Compound 237, hydrochloride salt]")
2
>>> measurement("Cc1cccc(C(CC(=O)NCCC2CCNCC2)c2cn(CC3CCCCC3)c3ccc(Br)cc23)c1.Cl (stereo not shown)")
4
